Reported abundance fitness values are given for each entry in this list.
B1: POU domain, class 5, transcription factor 1, residues 134 to 212; numbered along this chain, Q01860 (parent)
chain: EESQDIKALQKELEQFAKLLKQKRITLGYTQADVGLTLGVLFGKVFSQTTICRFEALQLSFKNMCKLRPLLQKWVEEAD

- Variants of: B1
- method.description: abundance fitness (aPCA) (normalised: wild type 0, dead -1); higher = more abundant; growth selection in yeast, the domain comes from the species named
- settings: Homo sapiens

Below: 3 variants and their reported abundance fitness.
sequence.chain | measurement
EESQDIKALQKELEQFAKLLKQKRITYGYTQADVGLTLGVLFGKVFSQTTICRFEALQLSFKNMCKLRPLLQKWVEEAD [L27Y] | -0.358
EESQDIKALQKELEQFAKKLKQKRITLGYTQADVGLTLGVLFGKVFSQTTICRFEALQLSFKNMCKLRPLLQKWVEEAD [L19K] | 0.373
EESQDIKALQKELEQFAKLLKQKRITLGYTQADVGLTLGVRFGKVFSQTTICRFEALQLSFKNMCKLRPLLQKWVEEAD [L41R] | -0.345

With those in mind, consider the next variant.
Recorded abundance fitness for EESQDAKALQKELEQFAKLLKQKRITLGYTQADVGLTLGVLFGKVFSQTTICRFEALQLSFKNMCKLRPLLQKWVEEAD [I6A] , please? 0.005
